cytotoxicity at 50 µM listing for selected compounds.
# Tested on: BMDCs
# assay_procedure: LDH release (lytic cell death, pyroptosis) from LPS-primed BMDCs
# Assay type: cell-based, mouse
# reported_conditions: Mus musculus, BMDC, single replicates; compound 50 μM; LPS-primed BMDCs; read-out: LDH release (% of max.)
Could you give me the number in %? Just the number is fine.

O=C(Nc1ccccc1)Nc1ccc(NC(=O)C2CCOC2)cc1 (stereo not drawn) : 19.4
O=C(NCc1nc(C2CC2)no1)Nc1cccc(F)c1 : 6.87
CCCCOC(=O)c1ccc(NC(=O)NC(CC(C)C)c2nc(-c3nnc[nH]3)no2)cc1 (stereo not drawn) : 8.89
CC(C)CC(NC(=O)Nc1cccc(N2CCC(C)CC2)c1)c1nc(-c2nnc[nH]2)no1 (stereo not drawn) : 6.68
O=C(Nc1ccccc1)Nc1ccc2ncccc2c1 : 59.4
O=C(Nc1ccccc1)Nc1cccc(OC(F)F)c1 : 25
O=C(Nc1cccc(Cl)c1)N1CCOCC1c1nc(-c2cccs2)no1 (stereo not drawn) : 15.3
CC(C)C(=O)Nc1cccc(NC(=O)Nc2ccccc2)c1 : 5.1

Look up cytotoxicity at 50 µM of CCc1ccc(Cl)c(CC)c1NC(=O)NC(c1nc(-c2cccnc2)no1)C(C)C (stereo not drawn) and report it.
37.4

Look up cytotoxicity at 50 µM of COc1cccc(C)c1NC(=O)NC(c1nc(-c2cccnc2)no1)C(C)C (stereo not drawn) and report it.
9.34

###

# System: BMDCs
# assay_procedure: LDH release (lytic cell death, pyroptosis) from LPS-primed BMDCs
# Assay type: cell-based, mouse
# reported_conditions: LDH release; compound 50 μM; positive control nigericin 5 μM
In plain terms, low Average (% positive control), meaning strictly below 10 % positive control, gives true, and everything else gives false.

Here are 6 compounds together with their reported answers.
COc1cccc(NC(=O)NCc2nc(Cc3ccccc3)no2)c1 [L01.067] : true
O=C(Nc1cccc(Cl)c1)N1CCOCC1c1nc(-c2cccs2)no1 (stereo not shown) [L01.090] : false
COc1ccc(F)cc1NC(=O)NC(c1nc(-c2cccnc2)no1)C(C)C (stereo not shown) [L01.007] : false
COCc1cc(F)ccc1NC(=O)NC(c1nc(-c2cccnc2)no1)C(C)C (stereo not shown) [L01.054] : false
CC(=O)Nc1ccc(NC(=O)Nc2ccccc2)cc1 [L01.109] : false
N#CCOc1ccc(NC(=O)Nc2ccccc2)cc1 [L01.002] : false

Determine whether this compound shows Average (% positive control) lower than 10 % positive control (ties excluded): CN(C)Cc1ccc(NC(=O)Nc2ccccc2)cc1 [L01.121]
false

Determine whether this compound shows Average (% positive control) lower than 10 % positive control (ties excluded): CCCCOC(=O)c1ccc(NC(=O)NC(CC(C)C)c2nc(-c3nnc[nH]3)no2)cc1 (stereo not shown) [L01.135]
false

Determine whether this compound shows Average (% positive control) lower than 10 % positive control (ties excluded): Cc1ccc(-c2noc(CN3C(=O)CN(c4ccccc4)C3=O)n2)cc1 [L01.127]
false

Determine whether this compound shows Average (% positive control) lower than 10 % positive control (ties excluded): CCc1ccc(Cl)c(CC)c1NC(=O)NC(c1nc(-c2cccnc2)no1)C(C)C (stereo not shown) [L01.113]
false

###

# target: NLRP3 inflammasome (Mus musculus)
# Construct: endogenous in cells; host or cells: primary mouse bone marrow-derived dendritic cells (BMDCs), LPS-primed
# Sequence (Q8R4B8 whole entry): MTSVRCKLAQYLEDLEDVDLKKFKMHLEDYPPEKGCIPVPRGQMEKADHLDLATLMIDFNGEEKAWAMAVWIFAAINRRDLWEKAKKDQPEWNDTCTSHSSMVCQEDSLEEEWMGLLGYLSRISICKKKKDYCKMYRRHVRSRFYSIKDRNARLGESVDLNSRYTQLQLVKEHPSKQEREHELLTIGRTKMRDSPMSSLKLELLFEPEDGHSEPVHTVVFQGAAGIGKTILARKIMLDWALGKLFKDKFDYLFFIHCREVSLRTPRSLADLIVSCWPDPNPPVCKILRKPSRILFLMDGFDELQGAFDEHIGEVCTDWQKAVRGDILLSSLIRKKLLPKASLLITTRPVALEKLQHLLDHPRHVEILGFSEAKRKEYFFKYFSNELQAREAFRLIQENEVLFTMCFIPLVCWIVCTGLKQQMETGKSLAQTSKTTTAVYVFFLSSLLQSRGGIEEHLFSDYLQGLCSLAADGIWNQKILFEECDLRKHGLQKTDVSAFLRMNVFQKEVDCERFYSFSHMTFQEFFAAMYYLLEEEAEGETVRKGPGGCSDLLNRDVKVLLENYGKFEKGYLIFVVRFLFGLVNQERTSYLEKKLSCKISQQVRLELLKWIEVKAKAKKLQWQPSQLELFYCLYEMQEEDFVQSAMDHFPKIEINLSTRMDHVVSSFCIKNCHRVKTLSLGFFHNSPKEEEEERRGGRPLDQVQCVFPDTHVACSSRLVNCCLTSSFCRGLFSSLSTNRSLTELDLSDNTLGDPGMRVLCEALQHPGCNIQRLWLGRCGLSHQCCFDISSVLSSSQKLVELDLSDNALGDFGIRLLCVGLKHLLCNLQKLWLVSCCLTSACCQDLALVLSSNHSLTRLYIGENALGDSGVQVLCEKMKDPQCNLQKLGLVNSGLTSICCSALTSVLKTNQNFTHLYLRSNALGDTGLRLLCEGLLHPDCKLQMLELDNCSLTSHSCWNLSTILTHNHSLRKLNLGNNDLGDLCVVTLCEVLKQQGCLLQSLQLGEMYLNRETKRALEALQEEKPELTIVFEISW
# assay_procedure: IL-1β release from LPS-primed BMDCs (ELISA) as readout of NLRP3 inflammasome activation
# Format: cell-based
# reported_conditions: IL-1β release; compound 50 μM; positive control nigericin 5 μM
Would you please tag the item Satisfied when its Average (% positive control) is 2 % positive control or above, and Not satisfied when it is below?

O=C1CN(c2ccccc2)C(=O)N1Cc1nc(-c2ccc(Cl)cc2)no1 [L01.049] : Satisfied
CC(C)CC(NC(=O)Nc1cccc(N2CCC(C)CC2)c1)c1nc(-c2nnc[nH]2)no1 (centres unmarked) [L01.093] : Not satisfied
COc1cccc(NC(=O)NCc2nc(Cc3ccccc3)no2)c1 [L01.067] : Not satisfied
O=C(Nc1ccccc1)Nc1ccc2ncccc2c1 [EN22, 1-phenyl-3-(quinolin-6-yl)urea] : Satisfied
N#CCOc1ccc(NC(=O)Nc2ccccc2)cc1 [L01.002] : Satisfied

Please check the record CCOc1ccc(NC(=O)NCc2nc(-c3cccc(OC)c3)no2)cc1OCC [L01.013] and state if its Average (% positive control) is at or above 2 % positive control.
Not satisfied

Please check the record CC(=O)Nc1ccc(NC(=O)Nc2ccccc2)cc1 [L01.109] and state if its Average (% positive control) is at or above 2 % positive control.
Not satisfied

Please check the record CC(C)C(=O)Nc1cccc(NC(=O)Nc2ccccc2)c1 [L01.023] and state if its Average (% positive control) is at or above 2 % positive control.
Not satisfied
